Source listed as patent US4642341A.

- Test system: S. aureus A-9537
- Assay Method Text: Minimum Inhibitory Concentration, tube dilution
- Assay type: cell-based
- Test Parameters: Staphylococcus aureus, A9537, overnight 37° C.; table 6; read-out: MIC
The compounds listed here are annotated with their MIC.
Observed Property: MIC (µg/mL)

- Cc1cccc(C)[n+]1CCSC1=C(C(=O)[O-])N2C(=O)[C@H]([C@@H](C)O)[C@H]2C1 [Example 12]: 0.008
- COc1ccc[n+](CCSC2=C(C(=O)[O-])N3C(=O)[C@H]([C@@H](C)O)[C@H]3C2)c1 [Example 10]: 0.008
- Cc1cccc[n+]1CCSC1=C(C(=O)[O-])N2C(=O)[C@H]([C@@H](C)O)[C@H]2C1 [Example 7]: 0.03
- Cc1cc(C)c[n+](CCSC2=C(C(=O)[O-])N3C(=O)[C@H]([C@@H](C)O)[C@H]3C2)c1 [Example 4]: 0.03
